# Test system: RXRa homodimer (NR concentration 180 nM)
# assay-text: PBM binding z-score (relative to random genomic background probes); higher = stronger binding; sequences stand for … in GC…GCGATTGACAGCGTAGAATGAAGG
measurement-name: PBM binding z-score
Output spec: single numeric token, no unit.

Would you please look over these solved cases?
* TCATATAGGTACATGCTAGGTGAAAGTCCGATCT | 0.745
* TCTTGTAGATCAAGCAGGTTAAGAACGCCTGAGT | 0.465
* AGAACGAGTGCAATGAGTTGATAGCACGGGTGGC | 0.283
* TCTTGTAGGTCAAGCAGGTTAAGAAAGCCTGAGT | 4.02
* ATATGTAGTTTACATCCGGGTCATTCAGGCTATG | 2.1
* ATCTCTAGGTAAAGATAGTTCAGGGAATGCAAAT | 0.459
* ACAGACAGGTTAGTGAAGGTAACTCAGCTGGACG | 0.511
* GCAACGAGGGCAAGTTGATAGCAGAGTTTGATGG | 0.98
* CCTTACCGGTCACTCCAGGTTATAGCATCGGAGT | 0.865
* TCATATAGGTAATACAGGTAAAAGTCGGCATCTA | 1.21

*Q* Data request, read-out PBM binding z-score, for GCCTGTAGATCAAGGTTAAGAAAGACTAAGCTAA
*A* 0.822

*Q* Data request, read-out PBM binding z-score, for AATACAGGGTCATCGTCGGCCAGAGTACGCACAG
*A* 6.37

###

# System: LXRb:RXRa (NR concentration 270 nM, RXRa partner concentration 90 nM)
# assay-text: PBM binding z-score (relative to random genomic background probes); higher = stronger binding; sequences stand for … in GC…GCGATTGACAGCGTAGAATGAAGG
Lab note: anything with PBM binding z-score at or over 1 counts as Criterion met; the rest go in Criterion not met.

*Q* Record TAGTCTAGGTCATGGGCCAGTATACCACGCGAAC ; criterion: PBM binding z-score no lower than 1. Met?
*A* Criterion met

*Q* Record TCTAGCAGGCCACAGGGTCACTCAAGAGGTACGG ; criterion: PBM binding z-score no lower than 1. Met?
*A* Criterion met

*Q* Record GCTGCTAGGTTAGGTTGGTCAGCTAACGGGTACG ; criterion: PBM binding z-score no lower than 1. Met?
*A* Criterion not met

*Q* Record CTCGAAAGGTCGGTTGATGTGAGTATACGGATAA ; criterion: PBM binding z-score no lower than 1. Met?
*A* Criterion met

*Q* Record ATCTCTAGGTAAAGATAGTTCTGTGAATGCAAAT ; criterion: PBM binding z-score no lower than 1. Met?
*A* Criterion not met

*Q* Record ATTTGTAGGTTAGCTGGGGTCATTCAGACTAGGC ; criterion: PBM binding z-score no lower than 1. Met?
*A* Criterion met

###

Here, each record is paired with measured PBM binding z-score data.
# Test system: RARg homodimer (NR concentration 270 nM)
# assay-text: PBM binding z-score (relative to random genomic background probes); higher = stronger binding; sequences stand for … in GC…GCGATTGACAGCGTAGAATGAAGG
Output spec: single numeric token, no unit.

- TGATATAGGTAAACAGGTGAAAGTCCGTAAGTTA: 0.407
- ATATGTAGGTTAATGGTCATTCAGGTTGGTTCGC: 1.11
- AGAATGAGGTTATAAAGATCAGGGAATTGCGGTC: 0.986
- CCTACTGGGCCATTCAGAGGTCATTGACCATATG: 3.23
- AGAACGAGGGCACGGTGAGTTGATAGCAGAGTAG: 2.31

*Q* Data request, read-out PBM binding z-score, for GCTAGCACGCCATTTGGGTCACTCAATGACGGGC
*A* 0.779
